Numbers sourced from paper PMC7381729.

# Protocol Description: Biodistribution in Daudi xenograft bearing mice
# Assay type: in vivo, mouse
# Experimental Conditions: female, CB-17 SCID, mouse, colon, iv, with AMD3100, 50 µg per animal, coinjected (CXCR4 competition), total radioactivity, 1h p.i., coinjection of 50 µg AMD3100/animal; n=1; read-out: Biodistribution colon, + AMD3100
Where a SMILES comes first, the peptide text is derived from it. Side-chain parts run from the residue outwards. [ ]: non-standard residue; d: D form. The star is where a group is joined. DOTA = O=C(O)CN1CCN(CC(=O)O)CCN(CC(=O)*)CCN(CC(=O)O)CC1; 2Nal = N[C@@H](Cc1ccc2ccccc2c1)C(=O)O; dNMeOrn = CN[C@H](CCCN)C(=O)O; 4Abz = Nc1ccc(C(=O)O)cc1

Compound: C[C@@H](NC(=O)[C@@H](CCCNC(=N)N)NC(=O)CN1CCN(CC(=O)O)CCN(CC(=O)O)CCN(CC(=O)O)CC1)C(=O)Nc1ccc(C(=O)NCCC[C@@H]2C(=O)N[C@@H](CCCNC(=N)N)C(=O)N[C@@H](Cc3ccc4ccccc4c3)C(=O)NCC(=O)N[C@H](Cc3ccc(O)cc3)C(=O)N2C)cc1 [[^177Lu]DOTA-r-a-ABA-CPCR4, metal not drawn] (cyclo([2Nal]G[dY][dNMeOrn]([4Abz-dA-dR-DOTA])R))
Value Units: %ID/g
tissue uptake at 1 h: 0.74

====

# Protocol Description: Biodistribution in Daudi xenograft bearing mice
# Format: in vivo, mouse
# Experimental Conditions: female, CB-17 SCID, mouse, stomach, iv, with AMD3100, 50 µg per animal, coinjected (CXCR4 competition), total radioactivity, 1h p.i., coinjection of 50 µg AMD3100/animal; means ± SD, n=3; read-out: Biodistribution stomach, competition with AMD3100
# Protocol: The biodistribution of selected compounds was investigated in Daudi (human B-cell lymphoma) xenograft bearing female CB-17 SCID mice (6-8 weeks, Charles River, Sulzfeld, Germany), [29]. […] Animals (n=4-5 per group) were injected intravenously with 5-10 MBq (0.08-0.11 nmol peptide per mouse) of the respective ^68Ga- and^ 177Lu-labeled CXCR4 ligands in PBS (100 µL) into the tail vein under isoflurane anesthesia. CXCR4-specificity of binding was determined by coinjection of 50 µg AMD3100 per mouse. […]
Where a SMILES comes first, the peptide text is derived from it. Side-chain parts run from the residue outwards. [ ]: non-standard residue; d: D form. The star is where a group is joined. DOTA = O=C(O)CN1CCN(CC(=O)O)CCN(CC(=O)*)CCN(CC(=O)O)CC1; 2Nal = N[C@@H](Cc1ccc2ccccc2c1)C(=O)O; dNMeOrn = CN[C@H](CCCN)C(=O)O; 4Abz = Nc1ccc(C(=O)O)cc1

Compound: C[C@@H](NC(=O)[C@@H](CCCNC(=N)N)NC(=O)CN1CCN(CC(=O)O)CCN(CC(=O)O)CCN(CC(=O)O)CC1)C(=O)Nc1ccc(C(=O)NCCC[C@@H]2C(=O)N[C@@H](CCCNC(=N)N)C(=O)N[C@@H](Cc3ccc4ccccc4c3)C(=O)NCC(=O)N[C@H](Cc3ccc(O)cc3)C(=O)N2C)cc1 [[^68Ga]DOTA-r-a-ABA-CPCR4, metal not drawn] (cyclo([2Nal]G[dY][dNMeOrn]([4Abz-dA-dR-DOTA])R))
tissue uptake at 1 h [%ID/g]: 0.97

====

# Protocol Description: Biodistribution in Daudi xenograft bearing mice
# Assay type: in vivo, mouse
# Experimental Conditions: female, CB-17 SCID, mouse, tumor / heart, iv, total radioactivity; 48h p.i.; means ± SD, n=4-5 animals; read-out: Tumor/organ ratio t/heart
Where a SMILES comes first, the peptide text is derived from it. Side-chain parts run from the residue outwards. [ ]: non-standard residue; d: D form. The star is where a group is joined. DOTA = O=C(O)CN1CCN(CC(=O)O)CCN(CC(=O)*)CCN(CC(=O)O)CC1; dTyr(3-I) = N[C@H](Cc1ccc(O)c(I)c1)C(=O)O; 2Nal = N[C@@H](Cc1ccc2ccccc2c1)C(=O)O; dNMeOrn = CN[C@H](CCCN)C(=O)O; 4Amb = NCc1ccc(C(=O)O)cc1; 4Abz = Nc1ccc(C(=O)O)cc1
Value Type: tissue to tissue ratio at 48 h

Compound: C[C@@H](NC(=O)[C@@H](CCCNC(=N)N)NC(=O)CN1CCN(CC(=O)O)CCN(CC(=O)O)CCN(CC(=O)O)CC1)C(=O)Nc1ccc(C(=O)NCCC[C@@H]2C(=O)N[C@@H](CCCNC(=N)N)C(=O)N[C@@H](Cc3ccc4ccccc4c3)C(=O)NCC(=O)N[C@H](Cc3ccc(O)cc3)C(=O)N2C)cc1 [[^177Lu]DOTA-r-a-ABA-CPCR4, metal not drawn] (cyclo([2Nal]G[dY][dNMeOrn]([4Abz-dA-dR-DOTA])R))
Value Type: tissue to tissue ratio at 48 h
Recorded Value: 111
//
Compound: C[C@@H](NC(=O)[C@@H](CCCNC(=N)N)NC(=O)CN1CCN(CC(=O)O)CCN(CC(=O)O)CCN(CC(=O)O)CC1)C(=O)Nc1ccc(C(=O)NCCC[C@@H]2C(=O)N[C@@H](CCCNC(=N)N)C(=O)N[C@@H](Cc3ccc4ccccc4c3)C(=O)NCC(=O)N[C@H](Cc3ccc(O)c(I)c3)C(=O)N2C)cc1 [[^177Lu]DOTA-r-a-ABA-iodoCPCR4, metal not drawn] (cyclo([2Nal]G[dTyr(3-I)][dNMeOrn]([4Abz-dA-dR-DOTA])R))
Value Type: tissue to tissue ratio at 48 h
Recorded Value: 42
//
Compound: CN1C(=O)[C@@H](Cc2ccc(O)c(I)c2)NC(=O)CNC(=O)[C@H](Cc2ccc3ccccc3c2)NC(=O)[C@H](CCCNC(=N)N)NC(=O)[C@H]1CCCNC(=O)c1ccc(CNC(=O)CN2CCN(CC(=O)O)CCN(CC(=O)O)CCN(CC(=O)O)CC2)cc1 [[^177Lu]PentixaTher, metal not drawn, reference compound] (cyclo([dTyr(3-I)][dNMeOrn]([4Amb-DOTA])R[2Nal]G))
Value Type: tissue to tissue ratio at 48 h
Recorded Value: 31

====

# Protocol Description: Biodistribution in Daudi xenograft bearing mice
# Assay type: in vivo, mouse
# Experimental Conditions: female, CB-17 SCID, mouse, tumor (Daudi xenograft), iv, with AMD3100, 50 µg per animal, coinjected (CXCR4 competition), total radioactivity, 1h p.i., coinjection of 50 µg AMD3100/animal; means ± SD, n=3; read-out: Biodistribution tumor, competition with AMD3100
Where a SMILES comes first, the peptide text is derived from it. Side-chain parts run from the residue outwards. [ ]: non-standard residue; d: D form. The star is where a group is joined. DOTA = O=C(O)CN1CCN(CC(=O)O)CCN(CC(=O)*)CCN(CC(=O)O)CC1; 2Nal = N[C@@H](Cc1ccc2ccccc2c1)C(=O)O; dNMeOrn = CN[C@H](CCCN)C(=O)O; 4Abz = Nc1ccc(C(=O)O)cc1

Compound: C[C@@H](NC(=O)[C@@H](CCCNC(=N)N)NC(=O)CN1CCN(CC(=O)O)CCN(CC(=O)O)CCN(CC(=O)O)CC1)C(=O)Nc1ccc(C(=O)NCCC[C@@H]2C(=O)N[C@@H](CCCNC(=N)N)C(=O)N[C@@H](Cc3ccc4ccccc4c3)C(=O)NCC(=O)N[C@H](Cc3ccc(O)cc3)C(=O)N2C)cc1 [[^68Ga]DOTA-r-a-ABA-CPCR4, metal not drawn] (cyclo([2Nal]G[dY][dNMeOrn]([4Abz-dA-dR-DOTA])R))
Value Units: %ID/g
tissue uptake at 1 h: 2.52

====

Each record here notes measured tissue uptake at 1 h.
# Protocol Description: Biodistribution in Daudi xenograft bearing mice
# Type: in vivo, mouse
# Experimental Conditions: female, CB-17 SCID, mouse, colon, iv, total radioactivity, 1h p.i., tracer only, i.v.; γ-counter; means ± SD, n=4-5 (68Ga: n=4); read-out: Biodistribution colon
Where a SMILES comes first, the peptide text is derived from it. Side-chain parts run from the residue outwards. [ ]: non-standard residue; d: D form. The star is where a group is joined. DOTA = O=C(O)CN1CCN(CC(=O)O)CCN(CC(=O)*)CCN(CC(=O)O)CC1; dTyr(3-I) = N[C@H](Cc1ccc(O)c(I)c1)C(=O)O; 2Nal = N[C@@H](Cc1ccc2ccccc2c1)C(=O)O; dNMeOrn = CN[C@H](CCCN)C(=O)O; 4Abz = Nc1ccc(C(=O)O)cc1
Value Type: tissue uptake at 1 h (%ID/g)

Compound: C[C@@H](NC(=O)[C@@H](CCCNC(=N)N)NC(=O)CN1CCN(CC(=O)O)CCN(CC(=O)O)CCN(CC(=O)O)CC1)C(=O)Nc1ccc(C(=O)NCCC[C@@H]2C(=O)N[C@@H](CCCNC(=N)N)C(=O)N[C@@H](Cc3ccc4ccccc4c3)C(=O)NCC(=O)N[C@H](Cc3ccc(O)c(I)c3)C(=O)N2C)cc1 [[^68Ga]DOTA-r-a-ABA-iodoCPCR4, metal not drawn] (cyclo([2Nal]G[dTyr(3-I)][dNMeOrn]([4Abz-dA-dR-DOTA])R))
Value Units: %ID/g
Recorded Value: 0.65

Compound: C[C@@H](NC(=O)[C@@H](CCCNC(=N)N)NC(=O)CN1CCN(CC(=O)O)CCN(CC(=O)O)CCN(CC(=O)O)CC1)C(=O)Nc1ccc(C(=O)NCCC[C@@H]2C(=O)N[C@@H](CCCNC(=N)N)C(=O)N[C@@H](Cc3ccc4ccccc4c3)C(=O)NCC(=O)N[C@H](Cc3ccc(O)cc3)C(=O)N2C)cc1 [[^68Ga]DOTA-r-a-ABA-CPCR4, metal not drawn] (cyclo([2Nal]G[dY][dNMeOrn]([4Abz-dA-dR-DOTA])R))
Value Units: %ID/g
Recorded Value: 0.67
